Value source: paper PMC12077508

Target: UniProt:Q8NGI8
Sequence (Q8NGI8 1-311): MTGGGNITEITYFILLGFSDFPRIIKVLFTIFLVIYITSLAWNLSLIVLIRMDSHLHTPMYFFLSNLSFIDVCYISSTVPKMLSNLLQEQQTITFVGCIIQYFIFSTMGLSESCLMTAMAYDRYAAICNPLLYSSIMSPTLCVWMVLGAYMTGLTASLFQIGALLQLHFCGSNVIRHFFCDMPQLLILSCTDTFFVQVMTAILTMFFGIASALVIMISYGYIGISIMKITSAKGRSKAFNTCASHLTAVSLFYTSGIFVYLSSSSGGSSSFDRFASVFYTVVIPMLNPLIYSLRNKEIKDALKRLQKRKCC
Assay: cAMPr fluorescence imaging in transfected HEK293T cells

| Molecule | EC50 |
| --- | --- |
| CC1CCCCCCCCCCCCC(=O)C1 (stereo not shown) | 290 µM |
